Test system: Glycine max (GLXMA)
Assay type: in vivo
Details: pre-emergence, 320 g/ha, crop plant compatibility, in comparison to untreated controls
experimental-endpoint: Pre-emergence action against GLXMA in % (%)
Please give a number only; it is taken to be in %.

# return recorded Pre-emergence action against GLXMA in % for input COC(=O)C1CCCN(C(=O)COc2nn(-c3ccccn3)c(-c3ccc(F)nc3)c2Br)C1 (stereo not shown)
0

# return recorded Pre-emergence action against GLXMA in % for input "COC(=O)CSc1nn(-c2ccccn2)c(-c2cncc(F)c2)c1Br"
20

# return recorded Pre-emergence action against GLXMA in % for input "CCOC(=O)COc1nn(-c2ccccn2)c(-c2cncc(F)c2)c1Cl"
0

# return recorded Pre-emergence action against GLXMA in % for input "O=C(O)CSc1nn(-c2ccccn2)c(-c2ccc(F)nc2)c1Br"
20
